method: Inhibition of Streptococcus agalactiae 4755 hyaluronidase at pH 5.0 after 30 mins by turbidimetric analysis
measured-property: log10(IC50) (log10 of the value in µM)
For clarity, the numbers are log10 values of IC50 expressed in µM.

Q: Look up log10(IC50) for this compound: `COC(=O)c1ccc2oc(=S)[nH]c2c1`
Ans: 3.11

Q: Look up log10(IC50) for this compound: `O=C(CCC1CCCCC1)n1c(=S)oc2ccccc21`
Ans: 2.36

Q: Look up log10(IC50) for this compound: `CCCCCCCCCCn1c(-c2ccc(OS(N)(=O)=O)cc2)cc2ccc(OS(N)(=O)=O)cc21`
Ans: 1.04

Q: Look up log10(IC50) for this compound: CCCCCCCCCCCCCCCC(=O)OC[C@H](O)[C@H]1OC(=O)C(O)=C1O [ASCORBYL PALMITATE]
Ans: 0.62

Q: Look up log10(IC50) for this compound: `CCC(=O)n1c(=S)oc2ccccc21`
Ans: 2.11

Others:
Q: Look up log10(IC50) for this compound: `O=C(COc1ccccc1)n1c(=S)oc2ccccc21`
Ans: 2.33

Q: Look up log10(IC50) for this compound: `O=C1O[C@H]([C@@H](O)CO)C(O)=C1O`
Ans: 3.79

Q: Look up log10(IC50) for this compound: `CC(=O)n1c(=S)n(C(C)=O)c2ccccc21`
Ans: 2.20

Q: Look up log10(IC50) for this compound: `O=C(Cc1ccccc1)n1c(=S)oc2ccccc21`
Ans: 2.41

Q: Look up log10(IC50) for this compound: `CC(=O)n1c(=S)oc2ccccc21`
Ans: 2.10

Q: Look up log10(IC50) for this compound: `O=C(CCc1ccccc1)n1c(=S)oc2ccccc21`
Ans: 1.18

Q: Look up log10(IC50) for this compound: `Sc1nc2ccccc2[nH]1`
Ans: 3.06
